- STUDY SYSTEM: Cytochrome P450 2C9 (Homo sapiens)
- TEST PROTOCOL: Cytochrome panel assay with activity outcomes
- RECORDED CONDITIONS: recombinant CYP, pro-luciferin dealkylation, luminescence, p450-cyp2c9; series mostly up to 57.1 µM
In all, about 16,000 compounds went through this assay and about 4,000 (25%) were called active. Another 26% or so got no clear call; they are omitted. Calls come from the whole dose curve; as a rule, active = well fitted curve in the direction sought with a large enough effect; inconclusive = small, poorly fitted or top-dose-only effect, or effect the other way; inactive = no such curve, though single readings can be large or run the other way. A selection follows.
Select the matching outcome among 1 (active), -1 (inactive)

Past entries and their recorded results:
{"COMPOUND": "Cc1noc(NS(=O)(=O)c2ccc(N)cc2)c1C", "ASSIGNED CLASS": -1}
{"COMPOUND": "N#C/C(=C(/O)CN1CCCCC1)c1nc(-c2ccc(Cl)cc2)cs1", "ASSIGNED CLASS": -1}

# fetch the recorded call for COC(=O)C/C=C\[C@@H](C)[C@@H](/C=N\OC[C@@H]1O[C@H](c2ccccc2)C=C[C@@H]1Oc1ccc(OC)cc1)NS(=O)(=O)c1ccc(C)cc1 here
1

Field: outcome | Entry: CSCCC(NC=C1C(=O)OC(C)(C)OC1=O)C(=O)O (stereo unspecified)
-1

Record lookup: outcome of this test for CO/N=C\c1ccc(C(=O)N2[C@H](c3ccc(C)cc3)[C@@H](C)CC[C@H]2C(=O)OC)cc1 ?
1

Call for entry COc1ccc(CN(CCN(C)C)c2ccccn2)cc1 :
-1

Each compound tested received a call. Report the one for CN(C)c1nccc(N(Cc2ccccc2)Cc2ccccc2)c1C#N .
1

###

- STUDY SYSTEM: Cytochrome P450 2C9 (Homo sapiens) (UniProt P11712)
- Sequence (P11712 whole entry, looked up): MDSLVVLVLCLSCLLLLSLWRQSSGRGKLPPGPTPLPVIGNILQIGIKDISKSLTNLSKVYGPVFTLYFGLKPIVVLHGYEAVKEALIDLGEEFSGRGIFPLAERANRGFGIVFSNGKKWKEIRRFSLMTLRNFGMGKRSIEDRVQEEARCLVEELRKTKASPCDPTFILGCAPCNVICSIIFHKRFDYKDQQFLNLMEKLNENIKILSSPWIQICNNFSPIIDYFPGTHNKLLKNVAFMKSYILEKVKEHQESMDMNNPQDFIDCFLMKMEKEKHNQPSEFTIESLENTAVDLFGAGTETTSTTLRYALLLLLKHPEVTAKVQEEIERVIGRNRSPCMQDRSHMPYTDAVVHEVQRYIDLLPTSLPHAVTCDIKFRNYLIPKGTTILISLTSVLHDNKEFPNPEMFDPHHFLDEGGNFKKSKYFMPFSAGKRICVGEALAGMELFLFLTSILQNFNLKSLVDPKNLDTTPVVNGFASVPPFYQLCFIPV
- TEST PROTOCOL: Cytochrome panel assay with activity outcomes
- RECORDED CONDITIONS: recombinant CYP, pro-luciferin dealkylation, luminescence, p450-cyp2c9; series mostly up to 57.1 µM
Hit rate of the full screen: of about 16,000 compounds, about 4,000 (25%) were called active. Roughly 26% stayed inconclusive and do not appear here. The call rests on the fitted dose curve; in most records, active means well fitted curve in the direction sought with a large enough effect; inconclusive means small, poorly fitted or top-dose-only effect, or effect the other way; inactive means no such curve, though single readings can be large or run the other way. These entries were drawn from the full list.
Pick one: t = active, f = inactive

{"COMPOUND": "O=C1c2cccnc2C(O)N1C1CCCCC1 (stereo unspecified)", "ASSIGNED CLASS": "f"}

Now look at this entry.
Hi, sorry to bother you, what did the test record for O=C(O)CSc1ncnc2sc3c(c12)CCC3 ?
f

###

- STUDY SYSTEM: Cytochrome P450 2C9 (Homo sapiens) (UniProt P11712)
- TEST PROTOCOL: Cytochrome panel assay with activity outcomes
- RECORDED CONDITIONS: recombinant CYP, pro-luciferin dealkylation, luminescence, p450-cyp2c9; series mostly up to 57.1 µM
In all, about 16,000 compounds went through this assay and about 4,000 (25%) were called active. Another 26% or so got no clear call; they are omitted. Calls come from the whole dose curve; as a rule, active = well fitted curve in the direction sought with a large enough effect; inconclusive = small, poorly fitted or top-dose-only effect, or effect the other way; inactive = no such curve, though single readings can be large or run the other way. Only a sample is shown.
Your response should consist of one outcome taken from active, inactive

Examples from the recorded data:
{"MOLECULE": "CS(=O)(=O)N1CCC[C@@]2(CCN(Cc3nccs3)C2)C1", "ASSIGNED CLASS": "inactive"}
{"MOLECULE": "Cc1ccc(NC(=O)CN2C(=O)S/C(=C\\c3cccn3C)C2=O)cc1", "ASSIGNED CLASS": "inactive"}
{"MOLECULE": "OC(CN1CCCCC1)CN1CCCCC1", "ASSIGNED CLASS": "inactive"}
{"MOLECULE": "CC1CCOC2(O1)C(=O)N(CN1CCN(c3ccccc3F)CC1)c1ccccc12 (stereo unspecified)", "ASSIGNED CLASS": "inactive"}
{"MOLECULE": "O=C(CN1CCN(c2ccc(Cl)cc2)CC1)Nc1ccc(F)c(F)c1", "ASSIGNED CLASS": "active"}

# evaluate next
For CS(=O)(=O)N1CCC[C@@]2(CCN(c3ccncc3)C2)C1 , what call appears in the results of this test?
inactive

###

- STUDY SYSTEM: Cytochrome P450 2C9 (Homo sapiens) (UniProt P11712)
- TEST PROTOCOL: Cytochrome panel assay with activity outcomes
- RECORDED CONDITIONS: recombinant CYP, pro-luciferin dealkylation, luminescence, p450-cyp2c9; series mostly up to 57.1 µM
Screen size: about 16,000 compounds; about 4,000 (25%) were called active. Not shown: some 26% with an inconclusive outcome. Only a sample is shown.
READOUT NAME: AC50

These solved cases illustrate the format of a correct answer.
{"COMPOUND": "COc1cc(C2C(=O)N(C3CCCC3)CC(=O)N2Cc2ccco2)ccc1OC(C)C (stereo unspecified)", "AC50": "10 µM (active)"}
{"COMPOUND": "Cc1ccc(NC(=S)Nc2ccc(Br)cc2)cc1", "AC50": "inactive"}
{"COMPOUND": "S=C(S)N1CCCC1", "AC50": "2 µM (active)"}
{"COMPOUND": "COc1ccc(C(Cl)=C(c2ccc(OC)cc2)c2ccc(OC)cc2)cc1", "AC50": "inactive"}
{"COMPOUND": "CCOC(=O)Cc1cc(=O)n2[nH]c(C)c(C#N)c2n1", "AC50": "inactive"}
{"COMPOUND": "CCCCOc1ccc(CC(=O)NO)cc1", "AC50": "inactive"}
{"COMPOUND": "COc1ccc(-c2cc(C(F)(F)F)nc(N3CCOCC3)n2)cc1OC", "AC50": "3.98 µM (active)"}
{"COMPOUND": "Cc1ccc([N+](=O)[O-])cc1NC(=S)NC(=O)C(C)(C)C", "AC50": "0.708 µM (active)"}
{"COMPOUND": "Cc1c(C=O)c2ccccn2c1C(=O)c1ccncc1", "AC50": "7.94 µM (active)"}
{"COMPOUND": "CC(C)(C)CC(=O)NC(=S)N1CCCCCC1", "AC50": "inactive"}

Requested read-out: AC50. Entry: COC(=O)c1c(-c2ccccc2)csc1NC(=O)CSc1ncnc2sc(C)c(C)c12
1.26 µM (active)

Which AC50 is listed for O=C(O)c1ccccc1C(=O)Nc1ccc(S(=O)(=O)Nc2nccs2)cc1 ?
inactive

// AC50 lookup, key: O=C(c1nn(Cc2ccccc2)c(=O)c2ccccc12)N1CCN(C/C=C/c2ccccc2)CC1
3.98 µM (active)

Give the measured AC50 of CCCCCOc1ccc(OC(=O)c2ccncc2)cc1 .
2.82 µM (active)

Item Clc1ccc(-c2csc(N3CCC(c4ccccc4)C3)n2)cc1 (stereo unspecified) has what recorded AC50?
14.1 µM (active)

###

- STUDY SYSTEM: Cytochrome P450 2C9 (Homo sapiens)
- TEST PROTOCOL: Cytochrome panel assay with activity outcomes
- RECORDED CONDITIONS: recombinant CYP, pro-luciferin dealkylation, luminescence, p450-cyp2c9; series mostly up to 57.1 µM
About 4,000 (25%) of roughly 16,000 compounds were called active. About 26% were inconclusive and are not listed. Calls come from the whole dose curve; as a rule, active = well fitted curve in the direction sought with a large enough effect; inconclusive = small, poorly fitted or top-dose-only effect, or effect the other way; inactive = no such curve, though single readings can be large or run the other way. Not all results are given here.
Hi! Could you answer with just one of these? t = active, f = inactive

These recorded examples may help you get a feel for the data.
{"CHEMICAL STRUCTURE": "COc1ccc2nc3c(c([Si](C)(C)C(C)(C)C)c2c1)Cn1c-3cccc1=O", "ASSIGNED CLASS": "t"}
{"CHEMICAL STRUCTURE": "Cc1sc2nc(C3CC3)nc(SCC(=O)N3CC(=O)Nc4ccccc43)c2c1C", "ASSIGNED CLASS": "t"}
{"CHEMICAL STRUCTURE": "c1ccc2c(c1)CCCc1cc(NCCN3CCOCC3)nnc1-2", "ASSIGNED CLASS": "f"}

Shift focus to the following entry.
Each compound tested received a call. Report the one for CCn1c(CCNC(=O)c2ccc(Cl)cc2Cl)n[nH]c1=S .
f

###

- STUDY SYSTEM: Cytochrome P450 2C9 (Homo sapiens) (UniProt P11712)
- TEST PROTOCOL: Cytochrome panel assay with activity outcomes
- RECORDED CONDITIONS: recombinant CYP, pro-luciferin dealkylation, luminescence, p450-cyp2c9; series mostly up to 57.1 µM
Among all 16,000 compounds or so, about 4,000 (25%) were called active. Roughly 26% stayed inconclusive and do not appear here. The call rests on the fitted dose curve; in most records, active means well fitted curve in the direction sought with a large enough effect; inconclusive means small, poorly fitted or top-dose-only effect, or effect the other way; inactive means no such curve, though single readings can be large or run the other way. A selection follows.
Use one of these outcomes when replying: active, inactive

Known results for compounds:
{"COMPOUND": "CCOc1cc(/C=N/NC(=O)CN2CCCCC2)ccc1OCc1ccccc1", "ASSIGNED CLASS": "inactive"}
{"COMPOUND": "O=C(N/N=C/C=C/c1ccc([N+](=O)[O-])cc1)c1cccs1", "ASSIGNED CLASS": "inactive"}
{"COMPOUND": "O=C(N/N=C/c1cccc(OCc2ccccc2)c1)c1cccs1", "ASSIGNED CLASS": "active"}
{"COMPOUND": "Cc1cc(N2C(=O)C(O)=C(C(=O)c3ccco3)C2c2ccc(O)cc2)no1 (stereo not given)", "ASSIGNED CLASS": "active"}

Let us examine a further case.
# fetch the recorded call for COc1cccc(C2C(C(=O)c3cc4ccccc4o3)=C(O)C(=O)N2c2cc(C)on2)c1OC (stereo not given) here
active
